The values you see were collected from ChEMBL document CHEMBL3885861.

organism: Rattus norvegicus; experiment: Open TG-GATES - Regimen: Daily Repeat; type: toxicity, organism-based, Sprague-Dawley; design: regimen Daily Repeat, gender Male, age 6 weeks; conditions: in vivo, po, 0 mg/kg, […], tissue Plasma, route gavage, dose level Control, time 7 day
Please respond with reported LDH for every item in the list.
Give bare numbers, in IU/L.

COc1ccc(O)c(C(C)(C)C)c1.COc1ccc(O)cc1C(C)(C)C [BUTYLATED HYDROXYANISOLE] ... 58.2
O=C1CN(/N=C/c2ccc(-c3ccc([N+](=O)[O-])cc3)o2)C(O)=N1 ... 76.6
O=P1(N(CCCl)CCCl)NCCCO1 (stereo unspecified) [CYCLOPHOSPHAMIDE ANHYDROUS] ... 200.2
Cc1cccc(Nc2cc(Cl)nc(SCC(=O)O)n2)c1C ... 80
CS(=O)(=O)Nc1ccc([N+](=O)[O-])cc1Oc1ccccc1 [NIMESULIDE] ... 91.8

Record LDH for all entries; do not skip any.
1. Cn1c(=O)c2c(ncn2C)n(C)c1=O
2. C=CCO
3. COc1ccc(Cl)cc1C(=O)NCCc1ccc(S(=O)(=O)NC(=O)NC2CCCCC2)cc1 [GLYBURIDE]
4. Cn1cnc([N+](=O)[O-])c1Sc1ncnc2nc[nH]c12
5. Cc1cnc(NC(=O)C2=C(O)c3ccccc3S(=O)(=O)N2C)s1
6. O=C1NC(=O)C(c2ccccc2)(c2ccccc2)N1

[out]
1. 185.6
2. 180.4
3. 129.6
4. 194.8
5. 190.6
6. 197

* * *

species: Rattus norvegicus; experiment: Open TG-GATES - Regimen: Daily Repeat; assay type: toxicity, organism-based, Sprague-Dawley; design: regimen Daily Repeat, gender Male, age 6 weeks; details: in vivo, po, 0 mg/kg, […], tissue Liver, route gavage, dose level Control, time 14 day
Quantity Measured: LIVER (g)
Numbers only, in g.

O=C1NC(=O)C(c2ccccc2)(c2ccccc2)N1 ... 12.7
C=CCO ... 14.1

Next up:
[in] Supply reported LIVER belonging to this molecule: COc1ccc(Cl)cc1C(=O)NCCc1ccc(S(=O)(=O)NC(=O)NC2CCCCC2)cc1 [GLYBURIDE]
[out] 14

* * *

Please respond with reported Mono for every item in the list.
species: Rattus norvegicus; assay: Open TG-GATES - Regimen: Single; assay type: toxicity, organism-based, Sprague-Dawley; parameters: regimen Single, gender Male, age 6 weeks; conditions: in vivo, po, 0 mg/kg, 24 h, tissue Blood, route gavage, dose level Control
Numbers only, in %.

Cn1cnc([N+](=O)[O-])c1Sc1ncnc2nc[nH]c12 ... 2
Cc1cnc(NC(=O)C2=C(O)c3ccccc3S(=O)(=O)N2C)s1 ... 2.6
O=C1NC(=O)C(c2ccccc2)(c2ccccc2)N1 ... 2.2
CS(=O)(=O)Nc1ccc([N+](=O)[O-])cc1Oc1ccccc1 [NIMESULIDE] ... 10.8

[in] Supply reported Mono belonging to this compound: `Cc1cccc(Nc2cc(Cl)nc(SCC(=O)O)n2)c1C`
[out] 3

* * *

species: Rattus norvegicus; experiment: Open TG-GATES - Regimen: Single; type: toxicity, organism-based, Sprague-Dawley; parameters: regimen Single, gender Male, age 6 weeks; details: in vivo, po, 0 mg/kg, 24 h, tissue Plasma, route gavage, dose level Control
Please respond with reported Ca for every item in the list.
One number for each entry, in mg/dL.

Worked cases, answers included:
COc1ccc(Cl)cc1C(=O)NCCc1ccc(S(=O)(=O)NC(=O)NC2CCCCC2)cc1 [GLYBURIDE] ... 10.7
S=C=Nc1cccc2ccccc12 [1-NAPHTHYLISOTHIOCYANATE] ... 10.8
Cn1cnc([N+](=O)[O-])c1Sc1ncnc2nc[nH]c12 [AZATHIOPRINE] ... 11
COc1ccc(O)c(C(C)(C)C)c1.COc1ccc(O)cc1C(C)(C)C [BUTYLATED HYDROXYANISOLE] ... 11.2

Next up:
[in] Supply reported Ca belonging to this molecule: C=CCO [ALLYL ALCOHOL]
[out] 10.8
